- Tested on: white fly Bemisia tabaci
- PROTOCOL DESCRIPTION: Bemisia test
- Type: in vivo
- CONDITION LABEL: concentration of active compound 0.0008 %, infested cotton plants (Gossypium hirsutum) with eggs, larvae and pupae dipped into preparation
OUTCOME MEASURE: Kill in % after 14 days (%)
Your answer is read as %, so omit the unit and give the number.

MOL SMILES	Kill in % after 14 days (%)
Cc1cc(C)c(C2=C(OC(=O)C(C)(C)C)C3(CCCC3)OC2=O)c(C)c1	0
Cc1cc(C)c(C2=C(OC(=O)CC(C)(C)C)C3(CCCC3)OC2=O)c(C)c1	95
Cc1cc(C)c(C2=C(OC(=O)CC(C)(C)C)C3(CCCCC3)OC2=O)c(C)c1	50

Let us examine a further case.
The compound identified as Cc1cc(C)c(C2=C(OC(=O)CC(C)C)C3(CCCC3)OC2=O)c(C)c1 registered its Kill in % after 14 days at 0

The values you see were collected from patent US6436988B1.
